Ref: the Immune Epitope Database (IEDB)

biological target: HLA-A*68:01; assay: IEDB peptide-MHC binding, purified MHC/competitive/radioactivity; filed as Kd, often an IC50 or EC50 that approximates it; bounds were set here for any values at or beyond the usual limits of such assays; details: source organism: Mammarenavirus lassaense
pKd: −log10 of the molar value.
OBSERVABLE: pKd

Requested field: pKd. Item: `LSCTKNTSHH` ≤ 4.36

====

target: HLA-A*26:01; test: IEDB peptide-MHC binding, purified MHC/competitive/fluorescence; filed as Kd, often an IC50 or EC50 that approximates it; bounds were set here for any values at or beyond the usual limits of such assays; settings: source organism: Escherichia coli
OBSERVABLE: Kd (µM)
Only the number, expressed in µM, is required.

Entry `ELISSAFKV` , system HLA-A*26:01: what Kd was measured? 4.06

====

target: HLA-B*48:01; assay: IEDB peptide-MHC binding, purified MHC/direct/fluorescence; filed as Kd, often an IC50 or EC50 that approximates it; bounds were set here for any values at or beyond the usual limits of such assays; settings: source organism: Campylobacter jejuni subsp. jejuni 81-176
OBSERVABLE: Kd

// query Kd value for entry `FEKAKIEVL` ≥ 20 µM

====

biological target: HLA-A*11:01; experiment: IEDB peptide-MHC binding, purified MHC/competitive/radioactivity; filed as Kd, often an IC50 or EC50 that approximates it; bounds were set here for any values at or beyond the usual limits of such assays; conditions: source organism: Hepatitis C virus (isolate 1)
OBSERVABLE: Kd

Find the recorded Kd belonging to `KLVALGINAV` and report it. ≥ 69.8 µM

====

biological target: HLA-A*30:01; experiment: IEDB peptide-MHC binding, purified MHC/competitive/fluorescence; filed as Kd, often an IC50 or EC50 that approximates it; bounds were set here for any values at or beyond the usual limits of such assays; details: source organism: Mycobacterium tuberculosis variant bovis BCG str. Pasteur 1173P2
pKd: −log10 of the molar value.
OBSERVABLE: pKd

Look up pKd for this sequence: `RPRLWRSVI` ≤ 4.70

====

Listed sequences paired with reported Kd
target: HLA-B*08:01; assay: IEDB peptide-MHC binding, purified MHC/competitive/radioactivity; filed as Kd, often an IC50 or EC50 that approximates it; bounds were set here for any values at or beyond the usual limits of such assays; details: source organism: Vaccinia virus WR
Report as a plain number; the unit nM is understood.

Illustrative cases are given below, each with its answer.
[[record]]
seq_text = "FIKNKIHLL"
numeric_readout = 0.821

[[record]]
seq_text = "NGKPKTFAI"
numeric_readout = 2110

[[record]]
seq_text = "EFINKFLEF"
numeric_readout = 370

[[record]]
seq_text = "ELKTRYHSI"
numeric_readout = 983

[[record]]
seq_text = "YLLMHLVSL"
numeric_readout = 1160


Which value of Kd has been reported for `RIRRFRRPM` in the records? 8.94

Quick check: Kd of `YNRDKFKAF` ? 20.2

Kd lookup needed for `NLLCHIYSL` , thanks. 0.307

Form field: reported Kd of `FPKNDFVSF` 15.5

Given the sequence `SSRRYRCSF` , what is its reported Kd? 11.5

====

biological target: HLA-A*11:01; experiment: IEDB peptide-MHC binding, purified MHC/direct/fluorescence; filed as Kd, often an IC50 or EC50 that approximates it; bounds were set here for any values at or beyond the usual limits of such assays; conditions: source organism: Marburg virus - Musoke, Kenya, 1980
Parameter Kd: see the listing below.

[[record]]
seq_text = "GFPSLESSF"
result = "≥ 20 µM"


Lab note: next sequence to report on.
For the sequence `QGKQHLHSL` , what Kd is on record? ≥ 20 µM

====

The entries below come with measured Kd values attached.
molecular target: HLA-A*02:02; assay: IEDB peptide-MHC binding, purified MHC/competitive/radioactivity; filed as Kd, often an IC50 or EC50 that approximates it; bounds were set here for any values at or beyond the usual limits of such assays; conditions: source organism: SARS coronavirus Tor2
Numbers only here, please. The scale is nM.

As a guide, the following entries are already answered.
[[record]]
seq_text = "ALVLLILMTA"
numeric_readout = 67.2

[[record]]
seq_text = "ALDGVLSTFV"
numeric_readout = 3.26

[[record]]
seq_text = "LIDFYLCFL"
numeric_readout = 8.31

[[record]]
seq_text = "IVNSVLLFL"
numeric_readout = 7.06

[[record]]
seq_text = "IVDTVSALV"
numeric_readout = 16.6

[[record]]
seq_text = "VVHGYFTEV"
numeric_readout = 17.2

[[record]]
seq_text = "LLFQLCTFT"
numeric_readout = 22.3

[[record]]
seq_text = "SMWALVISV"
numeric_readout = 6.12


Give recorded Kd with HLA-A*02:02 for the following sequence: `LLSAGIFGA` 12.3

Give HLA-A*02:02 Kd for `VLWAHGFEL` 2.4

What reported Kd corresponds to `GLIAIVMVTI` on HLA-A*02:02? 7.63

====

target: HLA-A*68:02; assay: IEDB peptide-MHC binding, purified MHC/competitive/radioactivity; filed as Kd, often an IC50 or EC50 that approximates it; bounds were set here for any values at or beyond the usual limits of such assays; settings: source organism: Hepacivirus hominis
pKd: −log10 of the molar value.
OBSERVABLE: pKd

Item `HSKKKCDDL` has what recorded pKd? ≤ 4.16

====

molecular target: HLA-B*39:01; test: IEDB peptide-MHC binding, purified MHC/competitive/fluorescence; filed as Kd, often an IC50 or EC50 that approximates it; bounds were set here for any values at or beyond the usual limits of such assays; settings: source organism: Homo sapiens
pKd: −log10 of the molar value.
Listed next: entries and their corresponding pKd.

[[record]]
seq_text = "FLQQRKPPL"
result = "≤ 4.70"


Requested read-out: pKd. Entry: `YITDYSNDI` ≤ 4.70

====

target: HLA-A*68:02; assay: IEDB peptide-MHC binding, purified MHC/competitive/fluorescence; filed as Kd, often an IC50 or EC50 that approximates it; bounds were set here for any values at or beyond the usual limits of such assays; settings: source organism: Vaccinia virus Tian Tan
OBSERVABLE: Kd

I would be grateful if you could share the reported Kd for `WQFAIHYSF` . ≥ 20 µM

====

biological target: HLA-B*51:01; assay: IEDB peptide-MHC binding, purified MHC/competitive/fluorescence; filed as Kd, often an IC50 or EC50 that approximates it; bounds were set here for any values at or beyond the usual limits of such assays; settings: source organism: Vibrio vulnificus CMCP6
OBSERVABLE: Kd

May I ask what Kd has been recorded for `LMLHQQYNQ` ? ≥ 20 µM

====

molecular target: HLA-B*58:01; experiment: IEDB peptide-MHC binding, purified MHC/competitive/radioactivity; filed as Kd, often an IC50 or EC50 that approximates it; bounds were set here for any values at or beyond the usual limits of such assays; conditions: source organism: Dengue virus 4 Philippines/H241/1956
OBSERVABLE: pKd
Worth noting: pKd values are minus log10 of concentrations stated in mol/L.

[[record]]
seq_text = "RSWNTGFDW"
observable = "pKd"
numeric_readout = 7.75


Below: the item to evaluate.
Query (sequence): `VASGLLWVAE` ; field requested: pKd 7.12

====

molecular target: HLA-A*30:02; experiment: IEDB peptide-MHC binding, purified MHC/competitive/radioactivity; filed as Kd, often an IC50 or EC50 that approximates it; bounds were set here for any values at or beyond the usual limits of such assays; conditions: source organism: Dengue virus 4 Philippines/H241/1956
OBSERVABLE: pKd
// pKd here means minus log10 of the molar concentration (mol/L)

[[record]]
seq_text = "LGAQALPVY"
numeric_readout = 7.91

[[record]]
seq_text = "LSSTRVPNY"
numeric_readout = 6.71

[[record]]
seq_text = "GTTVVKVKY"
numeric_readout = 6.61


Then this sequence:
Which measured pKd value corresponds to `KTKTDFGFY` ? 8.81

====

target: HLA-A*02:06; assay: IEDB peptide-MHC binding, purified MHC/competitive/radioactivity; filed as Kd, often an IC50 or EC50 that approximates it; bounds were set here for any values at or beyond the usual limits of such assays; settings: source organism: Vaccinia virus WR
OBSERVABLE: Kd (nM)
Entry rule: numbers only, all in nM.

[[record]]
seq_text = "ILFQNNDINA"
assay_target = "HLA-A*02:06"
numeric_readout = 3180

[[record]]
seq_text = "FVATFRDML"
assay_target = "HLA-A*02:06"
numeric_readout = 487

[[record]]
seq_text = "TLNTLITLI"
assay_target = "HLA-A*02:06"
numeric_readout = 941

[[record]]
seq_text = "MLPESDLDKV"
assay_target = "HLA-A*02:06"
numeric_readout = 4.42

[[record]]
seq_text = "VQEFIFSAL"
assay_target = "HLA-A*02:06"
numeric_readout = 198


Give the measured Kd of `NTFVNFNSV` . 0.346

Which Kd reading was recorded for the sequence `IVPDIKLDA` ? 3430

Which measured Kd value corresponds to `IMDKEQLLKI` ? 1340

// returns reported Kd for input `VVYHDDDNTT` 3920

Please look up its Kd: `MIHKTYIDV` 126

Item under review: `PTEMVDVSMM` . Reported Kd? 12100
